Consider the following binders and their measured pKi readings.
- testedOn: T1, RAMP1-CTR ECD fusion protein (hRAMP1.24–111-(GSA)3-hCTR.34–141-H6) (human, UniProt O60894 24-111; P30988 34-141)
- T1 construct: human receptor activity-modifying protein 1 (RAMP1), extracellular domain, residues 24-111; linker, printed as (GSA)3; human calcitonin receptor (CTR), extracellular domain, residues 34-141; Secreted from a pHLsec-based vector; also called AMY receptor 1 ECD; RAMP1 ECD-CTR ECD fusion; source: HEK293T, transiently transfected, secreted to cell culture media, purified (IMAC, SEC)
- T1 chain: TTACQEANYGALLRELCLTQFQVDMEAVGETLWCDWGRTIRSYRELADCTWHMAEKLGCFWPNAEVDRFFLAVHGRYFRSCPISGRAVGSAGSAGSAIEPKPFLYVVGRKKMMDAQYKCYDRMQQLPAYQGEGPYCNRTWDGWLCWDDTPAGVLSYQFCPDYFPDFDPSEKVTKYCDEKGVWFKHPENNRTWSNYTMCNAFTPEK
- testName: fluorescence polarisation; competition binding, full curves: FITC-AC413(6–25) Y25P probe 10 nM, RAMP1-CTR ECD 77 nM, RAMP2-CTR ECD 67 nM or RAMP3-CTR ECD 252 nM, competitive peptide at multiple concentrations, all in solution; KI from non-linear regression of anisotropy
- conditionDetails: both partners purified
Where no end group is shown, it is not given here. [ ]: non-standard residue; d: D form. Hyp = O=C(O)[C@@H]1C[C@@H](O)CN1
Recall that pKi is obtained by taking minus log10 of the concentration measured in molar.

// worked examples, pKi included
[[record]]
binder = "YPRTNTGSGTP-NH2 (salmon calcitonin (sCT), residues 22-32; numbers count on: the mature 32-residue hormone; also called wild-type sCT(22–32); salmon calcitonin fragment 22–32; source: synthetic peptide (Genscript, HPLC-purified)) [sCT(22–32)]"
reportedresult = 5.59

[[record]]
binder = "YPRTDTGPGTP-NH2 (salmon calcitonin (sCT), residues 22-32, with N26D and S29P; numbers count on: the mature 32-residue hormone; source: synthetic peptide (Genscript, HPLC-purified)) [sCT(22–32) N26D/S29P]"
reportedresult = 6.42

[[record]]
binder = "YPRTNTGSGT[Hyp]-NH2 (N-terminus assumed; SMILES C[C@@H](O)[C@H](NC(=O)[C@H](CC(N)=O)NC(=O)[C@@H](NC(=O)[C@H](CCCNC(=N)N)NC(=O)[C@@H]1CCCN1C(=O)[C@@H](N)Cc1ccc(O)cc1)[C@@H](C)O)C(=O)NCC(=O)N[C@@H](CO)C(=O)NCC(=O)N[C@H](C(=O)N1C[C@H](O)C[C@H]1C(N)=O)[C@@H](C)O, salmon calcitonin (sCT), residues 22-32, with P32HYP; numbers count on: the mature 32-residue hormone; Residue 32 is hydroxyproline, not plain proline; source: synthetic peptide (Genscript, HPLC-purified)) [sCT(22–32) P32HYP]"
reportedresult = 6.05


Let us examine a further case.
Using the record for YPRTDTGPGT[Hyp]-NH2 (salmon calcitonin (sCT), residues 22-32, with N26D, S29P and P32HYP; numbers count on: the mature 32-residue hormone; Residue 32 is hydroxyproline, not plain proline; also called the mutated sCT(22–32); sCT(22–32) with the combined mutations (N26D, S29P, and P32HYP); source: synthetic peptide (Genscript, HPLC-purified)) [sCT(22–32) N26D/S29P/P32HYP] , report its pKi.
6.91
